This collection of values is drawn from patent US12441730B2.

Overview of reported pEC50 across a group of molecules:
Molecular target: Full-length (FL)-PRMT5-MEP50 enzyme complex (Homo sapiens, UniProt O14744)
Construct: Full-length (FL)-PRMT5-MEP50 enzyme complex (recombinant proteins from baculovirus-transfected Sf21 cells: FL-PRMT5; MW=73837 kDa and FL-MEP50; MW=38614); made in house; host or cells: baculovirus-transfected Sf21 cells
Sequence (O14744 whole entry): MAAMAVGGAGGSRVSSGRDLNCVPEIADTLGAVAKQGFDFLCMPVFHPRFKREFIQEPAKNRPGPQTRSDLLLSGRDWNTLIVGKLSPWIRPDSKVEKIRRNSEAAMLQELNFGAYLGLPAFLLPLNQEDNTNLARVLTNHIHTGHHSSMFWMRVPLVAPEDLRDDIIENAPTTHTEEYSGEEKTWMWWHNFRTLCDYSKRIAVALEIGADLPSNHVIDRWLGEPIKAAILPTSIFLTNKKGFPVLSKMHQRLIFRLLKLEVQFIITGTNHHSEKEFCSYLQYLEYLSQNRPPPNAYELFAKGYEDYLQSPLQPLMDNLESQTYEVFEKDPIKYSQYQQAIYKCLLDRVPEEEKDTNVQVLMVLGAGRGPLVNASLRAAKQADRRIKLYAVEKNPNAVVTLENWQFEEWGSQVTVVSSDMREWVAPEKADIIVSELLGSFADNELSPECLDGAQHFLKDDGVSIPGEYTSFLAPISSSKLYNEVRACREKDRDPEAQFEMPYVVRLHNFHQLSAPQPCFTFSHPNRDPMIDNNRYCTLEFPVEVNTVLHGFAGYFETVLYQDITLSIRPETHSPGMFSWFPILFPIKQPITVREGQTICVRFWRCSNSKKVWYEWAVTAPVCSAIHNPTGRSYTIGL
Sequence (Q9BQA1 whole entry partner): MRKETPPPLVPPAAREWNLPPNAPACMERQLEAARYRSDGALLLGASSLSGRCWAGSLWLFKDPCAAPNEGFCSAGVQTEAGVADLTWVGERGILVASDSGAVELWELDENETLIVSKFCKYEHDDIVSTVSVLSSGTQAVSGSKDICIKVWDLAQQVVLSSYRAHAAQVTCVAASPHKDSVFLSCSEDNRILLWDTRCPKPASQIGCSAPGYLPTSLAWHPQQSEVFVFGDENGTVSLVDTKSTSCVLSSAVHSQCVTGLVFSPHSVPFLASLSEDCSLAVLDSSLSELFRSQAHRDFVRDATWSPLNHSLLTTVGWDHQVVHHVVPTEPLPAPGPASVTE
Test: PRMT5-MEP50 Enzyme Methylation Assay (Version A)
Assay type: biochemical
Conditions: single EC50 = 4 parameter single site sigmoidal fit; EC50 1 = first value of 7 parameter biphasic fit; read-out: Enzyme Methylation Assay Version A (EC50 or EC50 1)
pEC50: −log10 of the molar value.

{"Molecule": "Cc1nn(C)c2ncc(C(=O)N3CC[C@]4(Cc5ccccc5CN4)[C@H](O)C3)c(Cl)c12 [Example 180]", "Measured on": "Full-length (FL)-PRMT5-MEP50 enzyme complex (Homo sapiens, UniProt O14744)", "pEC50": 7.29}
{"Molecule": "Cn1nccc1-c1cnc2nc(C(=O)N3CC[C@]4(Cc5ccccc5CN4)[C@H](O)C3)cn2c1 [Example 78]", "Measured on": "Full-length (FL)-PRMT5-MEP50 enzyme complex (Homo sapiens, UniProt O14744)", "pEC50": 9.29}
{"Molecule": "Cc1cc(Cl)c2nc(C(=O)N3CC[C@]4(Cc5ccccc5CN4)[C@H](O)C3)cn2c1 [Example 207]", "Measured on": "Full-length (FL)-PRMT5-MEP50 enzyme complex (Homo sapiens, UniProt O14744)", "pEC50": 9.42}
{"Molecule": "Cc1ccnc2nc(C(=O)N3CC[C@]4(Cc5ccccc5CN4)[C@H](O)C3)cn12 [Example 124]", "Measured on": "Full-length (FL)-PRMT5-MEP50 enzyme complex (Homo sapiens, UniProt O14744)", "pEC50": 8.07}
{"Molecule": "O=C(c1cn2cc(Br)nc(OC3CCOC3)c2n1)N1CC[C@]2(Cc3ccccc3CN2)[C@H](O)C1 (single isomer, unassigned) [Example 99]", "Measured on": "Full-length (FL)-PRMT5-MEP50 enzyme complex (Homo sapiens, UniProt O14744)", "pEC50": 9.37}
{"Molecule": "COCCN1CC(C2CC2)Cn2cc(C(=O)N3CC[C@]4(Cc5ccccc5CN4)[C@H](O)C3)nc21 (single isomer, unassigned) [Example 144]", "Measured on": "Full-length (FL)-PRMT5-MEP50 enzyme complex (Homo sapiens, UniProt O14744)", "pEC50": 7.18}
{"Molecule": "COc1ccc2nc(C(=O)N3CC[C@]4(Cc5ccccc5CN4)[C@H](O)C3)cn2c1 [Example 43]", "Measured on": "Full-length (FL)-PRMT5-MEP50 enzyme complex (Homo sapiens, UniProt O14744)", "pEC50": 8.49}
{"Molecule": "COCCN(C)c1cc([C@@H](C)OC)c2nc(C(=O)N3CC[C@]4(Cc5ccccc5CN4)[C@H](O)C3)cn2c1 [Example 229]", "Measured on": "Full-length (FL)-PRMT5-MEP50 enzyme complex (Homo sapiens, UniProt O14744)", "pEC50": 9.22}
{"Molecule": "CCN1CCNc2cc(C(=O)N3CC[C@]4(Cc5ccccc5CN4)[C@H](O)C3)ccc2C1=O [Example 26]", "Measured on": "Full-length (FL)-PRMT5-MEP50 enzyme complex (Homo sapiens, UniProt O14744)", "pEC50": 8.84}
{"Molecule": "Cc1c(Br)cnc2nc(C(=O)N3CC[C@]4(Cc5ccccc5CN4)[C@H](O)C3)cn12 [Example 119]", "Measured on": "Full-length (FL)-PRMT5-MEP50 enzyme complex (Homo sapiens, UniProt O14744)", "pEC50": 7.93}
{"Molecule": "O=C(c1cn2cc(C3CC3)ncc2n1)N1CC[C@]2(Cc3ccccc3CN2)[C@H](O)C1 [Example 134]", "Measured on": "Full-length (FL)-PRMT5-MEP50 enzyme complex (Homo sapiens, UniProt O14744)", "pEC50": 6.84}
{"Molecule": "Cc1cnc2nc(C(=O)N3CC[C@]4(Cc5ccccc5CN4)[C@H](O)C3)cn2c1 [Example 120]", "Measured on": "Full-length (FL)-PRMT5-MEP50 enzyme complex (Homo sapiens, UniProt O14744)", "pEC50": 9.30}
{"Molecule": "O=C(c1ccc2c(c1)NCCN(CC(F)(F)F)C2=O)N1CC[C@]2(Cc3ccccc3CN2)[C@H](O)C1 [Example 170]", "Measured on": "Full-length (FL)-PRMT5-MEP50 enzyme complex (Homo sapiens, UniProt O14744)", "pEC50": 8.59}
{"Molecule": "O=C(c1ccc(-n2cnnn2)cn1)N1CC[C@]2(Cc3ccccc3CN2)[C@H](O)C1 [Example 192]", "Measured on": "Full-length (FL)-PRMT5-MEP50 enzyme complex (Homo sapiens, UniProt O14744)", "pEC50": 6.95}
{"Molecule": "CN(C)C(=O)c1ccc2nc(C(=O)N3CC[C@]4(Cc5ccccc5CN4)[C@H](O)C3)cn2c1 [Example 2]", "Measured on": "Full-length (FL)-PRMT5-MEP50 enzyme complex (Homo sapiens, UniProt O14744)", "pEC50": 9.20}

----------
Target: Full-length (FL)-PRMT5-MEP50 enzyme complex (Homo sapiens)
Construct: Full-length (FL)-PRMT5-MEP50 enzyme complex (recombinant proteins from baculovirus-transfected Sf21 cells: FL-PRMT5; MW=73837 kDa and FL-MEP50; MW=38614); made in house; host or cells: baculovirus-transfected Sf21 cells
Test: PRMT5-MEP50 Enzyme Methylation Assay (Version A)
Assay type: biochemical
Conditions: single EC50 = 4 parameter single site sigmoidal fit; EC50 1 = first value of 7 parameter biphasic fit; read-out: Enzyme Methylation Assay Version A (EC50 or EC50 1)
pEC50: −log10 of the molar value.
Decide using pEC50: a value greater than or equal to 7 is class 1, a smaller one is class 0.

{"Cpd smiles": "O=C(c1cnc2ncnn2c1)N1CC[C@]2(Cc3ccccc3CN2)[C@H](O)C1", "Measured on": "Full-length (FL)-PRMT5-MEP50 enzyme complex (Homo sapiens)", "Label class": "class 0"}
{"Cpd smiles": "Cc1ccc(C(=O)N2CC[C@]3(Cc4ccccc4CN3)[C@H](O)C2)c(OCCO)n1", "Measured on": "Full-length (FL)-PRMT5-MEP50 enzyme complex (Homo sapiens)", "Label class": "class 1"}
{"Cpd smiles": "O=C(c1cn2cc(C(F)(F)F)cc(Cl)c2n1)N1CC[C@]2(Cc3ccccc3CN2)[C@H](O)C1", "Measured on": "Full-length (FL)-PRMT5-MEP50 enzyme complex (Homo sapiens)", "Label class": "class 1"}
{"Cpd smiles": "O=C(c1cc2ncc(Br)cn2n1)N1CC[C@]2(Cc3ccccc3CN2)[C@H](O)C1", "Measured on": "Full-length (FL)-PRMT5-MEP50 enzyme complex (Homo sapiens)", "Label class": "class 1"}
{"Cpd smiles": "O=C(c1cn2cc(Br)c(C3CC3)nc2n1)N1CC[C@]2(Cc3ccccc3CN2)[C@H](O)C1", "Measured on": "Full-length (FL)-PRMT5-MEP50 enzyme complex (Homo sapiens)", "Label class": "class 1"}

----------
Target: Full-length (FL)-PRMT5-MEP50 enzyme complex (Homo sapiens, UniProt O14744)
Construct: Full-length (FL)-PRMT5-MEP50 enzyme complex (recombinant proteins from baculovirus-transfected Sf21 cells: FL-PRMT5; MW=73837 kDa and FL-MEP50; MW=38614); made in house; host or cells: baculovirus-transfected Sf21 cells
Assay: PRMT5-MEP50 Enzyme Methylation Assay (Version A)
Format: biochemical
Settings: single EC50 = 4 parameter single site sigmoidal fit; EC50 1 = first value of 7 parameter biphasic fit; read-out: Enzyme Methylation Assay Version A (EC50 or EC50 1)
Mark each entry Criterion met if its EC50 sits below 4 nM, and Criterion not met for all others.

{"Compound": "CO[C@H](C)c1cc(-c2cncs2)cn2cc(C(=O)N3CC[C@]4(Cc5ccccc5CN4)[C@H](O)C3)nc12", "Measured on": "Full-length (FL)-PRMT5-MEP50 enzyme complex (Homo sapiens, UniProt O14744)", "Label class": "Criterion met"}
{"Compound": "O=C(c1cc2ncc(C(F)(F)F)cn2n1)N1CC[C@]2(Cc3ccccc3CN2)[C@H](O)C1", "Measured on": "Full-length (FL)-PRMT5-MEP50 enzyme complex (Homo sapiens, UniProt O14744)", "Label class": "Criterion not met"}
{"Compound": "CO[C@H](C)c1cc(N2Cc3ncsc3C2)cn2cc(C(=O)N3CC[C@]4(Cc5ccccc5CN4)[C@H](O)C3)nc12", "Measured on": "Full-length (FL)-PRMT5-MEP50 enzyme complex (Homo sapiens, UniProt O14744)", "Label class": "Criterion not met"}
{"Compound": "N#CC1(COc2nc(Br)cn3cc(C(=O)N4CC[C@]5(Cc6ccccc6CN5)[C@H](O)C4)nc23)CC1", "Measured on": "Full-length (FL)-PRMT5-MEP50 enzyme complex (Homo sapiens, UniProt O14744)", "Label class": "Criterion met"}
{"Compound": "CC1CC1c1cnc2nc(C(=O)N3CC[C@]4(Cc5ccccc5CN4)[C@H](O)C3)cn2c1 (single isomer, unassigned) [Example 76]", "Measured on": "Full-length (FL)-PRMT5-MEP50 enzyme complex (Homo sapiens, UniProt O14744)", "Label class": "Criterion met"}
{"Compound": "Cc1nc2ncc(C(=O)N3CC[C@]4(Cc5ccccc5CN4)[C@H](O)C3)n2cc1Br", "Measured on": "Full-length (FL)-PRMT5-MEP50 enzyme complex (Homo sapiens, UniProt O14744)", "Label class": "Criterion not met"}
{"Compound": "O=C(c1ccn(CC(F)(F)F)c(=O)c1)N1CC[C@]2(Cc3ccccc3CN2)[C@H](O)C1", "Measured on": "Full-length (FL)-PRMT5-MEP50 enzyme complex (Homo sapiens, UniProt O14744)", "Label class": "Criterion not met"}
